Molecular target: human ether-à-go-go-related gene (hERG) potassium channel (human);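 note: peak tail current of the secondary pulse compared with the same well before compound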
Sequence (Q12809 whole entry, looked up): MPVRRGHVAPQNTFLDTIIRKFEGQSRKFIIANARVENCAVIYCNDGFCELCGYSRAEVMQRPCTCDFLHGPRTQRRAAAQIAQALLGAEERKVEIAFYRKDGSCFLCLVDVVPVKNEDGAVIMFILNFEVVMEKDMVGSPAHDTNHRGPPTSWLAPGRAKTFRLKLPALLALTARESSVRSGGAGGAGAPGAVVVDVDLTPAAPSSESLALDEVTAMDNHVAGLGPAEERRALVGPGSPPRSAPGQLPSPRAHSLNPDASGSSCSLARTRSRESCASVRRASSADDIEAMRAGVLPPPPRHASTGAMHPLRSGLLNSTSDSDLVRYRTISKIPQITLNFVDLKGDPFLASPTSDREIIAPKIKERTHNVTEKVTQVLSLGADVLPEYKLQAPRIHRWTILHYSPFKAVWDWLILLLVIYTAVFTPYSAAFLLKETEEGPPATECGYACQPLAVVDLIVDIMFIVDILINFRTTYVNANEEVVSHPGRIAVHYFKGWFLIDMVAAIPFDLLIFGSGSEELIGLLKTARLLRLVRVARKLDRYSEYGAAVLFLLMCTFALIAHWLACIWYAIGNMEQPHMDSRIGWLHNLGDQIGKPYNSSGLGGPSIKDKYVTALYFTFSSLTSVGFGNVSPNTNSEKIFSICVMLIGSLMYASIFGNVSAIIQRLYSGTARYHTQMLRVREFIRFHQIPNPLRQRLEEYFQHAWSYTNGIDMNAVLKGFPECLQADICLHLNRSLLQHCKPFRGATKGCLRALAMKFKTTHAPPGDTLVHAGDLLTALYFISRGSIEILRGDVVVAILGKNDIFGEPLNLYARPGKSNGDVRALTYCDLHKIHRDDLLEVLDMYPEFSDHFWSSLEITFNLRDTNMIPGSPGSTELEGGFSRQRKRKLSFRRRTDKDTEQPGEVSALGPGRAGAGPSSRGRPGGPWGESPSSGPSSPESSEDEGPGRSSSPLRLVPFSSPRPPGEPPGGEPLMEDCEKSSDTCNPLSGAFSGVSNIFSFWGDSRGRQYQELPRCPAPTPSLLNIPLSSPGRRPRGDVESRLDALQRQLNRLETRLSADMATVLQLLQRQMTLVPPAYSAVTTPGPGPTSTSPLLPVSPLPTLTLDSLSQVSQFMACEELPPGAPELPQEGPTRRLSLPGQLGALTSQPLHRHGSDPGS
Assay: primary screen, population patch clamp on CHO cells stably expressing hERG; higher = less effect of the substance
About 14,000 (4.5%) of roughly 310,000 compounds showed an effect of 50% or more. The effect is printed as a negative number. This excerpt belongs to a sample that is enriched for strong results.
Here, each record is paired with measured hERG current change (%, negative = inhibition) at 10uM data.
Write down the numeric answer in % and omit the unit.

CN(C)CCCN(C(=O)CCS(=O)(=O)c1ccccc1)c1nc2cc3c(cc2s1)OCO3.Cl : -60
O=C1CC(C(=O)N2CCOCC2)C2(CCCCC2)O1 (stereo not shown) : 17.8
CC(NC1CCCCC1)C(O)C12CC3CC(CC(C3)C1)C2.Cl (stereo not shown) : -16.4
Cc1ccc(NC(=O)C[n+]2cc(-c3ccccc3)n3c2CCC3)cc1.[Cl-] : -15.2
CCN(CC)CCn1c(NC(=O)c2ccccc2O)nc2ccccc21 : -68

Below: the item to evaluate.
Asked: Consider the compound shown here: CC(NC(=O)c1cccs1)C(=O)NC1=NCCS1 (stereo not shown) What is its recorded hERG current change (%, negative = inhibition) at 10uM?
Given back: 1.3

====

hERG current change (%, negative = inhibition) at 10uM values, listed per item
Target: human ether-à-go-go-related gene (hERG) potassium channel (human);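 note: peak tail current of the secondary pulse compared with the same well before compound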
Assay: primary screen, population patch clamp on CHO cells stably expressing hERG; higher = less effect of the substance
The whole screen tested about 310,000 compounds, of which about 14,000 (4.5%) showed an effect of 50% or more. The effect is printed as a negative number. The entries come from a sample that favours strong results as a whole.
Please give a number only; it is taken to be in %.

For orientation, consider the following solved cases.
CCOC(=O)c1sc2nc(CC(=O)OC)nc(NCc3ccc(Cl)cc3)c2c1C : -7.35
CCOC(=O)c1sc2nc(CC(=O)OC)nc(NCCN(CC)CC)c2c1C : -62.7
CCOC(=O)c1sc2nc(CC(=O)OC)nc(NCC(=O)OC)c2c1C : -9.05
O=C(Cc1csc(NC(=O)Nc2cccc(Cl)c2)n1)NCc1ccccn1 : -5.14

Asked: What value of hERG current change (%, negative = inhibition) at 10uM has been reported for the following compound? `O=C(NCc1cccnc1)Nc1cccc(Cl)c1`
Given back: 15

====

Target: human ether-à-go-go-related gene (hERG) potassium channel (human);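 note: peak tail current of the secondary pulse compared with the same well before compound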
Experiment: primary screen, population patch clamp on CHO cells stably expressing hERG; higher = less effect of the substance
The campaign covered roughly 310,000 compounds. About 14,000 (4.5%) showed an effect of 50% or more. Effects have a minus sign here. Shown is part of a subset that was picked to be rich in strong results.
attribute_measured: hERG current change (%, negative = inhibition) at 10uM (%)
Quick note: give the figure in %, leave out the unit.

Here is how some compounds turned out for hERG current change (%, negative = inhibition) at 10uM.
COc1cccc2cc(C(C)N(CCCN3CCOCC3)C(=S)Nc3cccc(C)c3)oc12 (stereo not drawn) : 14.8
COc1ccc(-n2c(Cc3cccn3C)nnc2SCC(=O)Nc2cc(C)cc(C)c2)cc1 : -52.4
COc1ccc(S(=O)(=O)N2CCCC(C(=O)NCc3ccccc3)C2)cc1 (stereo not drawn) : 23.7
CC(C)=N/N=C(\c1cccc([N+](=O)[O-])c1)C12CN3CN(CN(C3)C1)C2 : 7.66
O=C(O)Cn1c2ccccc2c2ccccc21 : 30.5
Cc1ccc(C(=O)NC(=S)Nc2ccc(-c3cc4ccccc4oc3=O)cc2)c(C)c1 : 27.1

Asked: Which hERG current change (%, negative = inhibition) at 10uM reading was recorded for the compound CCCC(c1nnnn1CC1CCCO1)N1CCN(c2ccccc2)CC1.Cl (stereo not drawn) ?
Given back: -4.74

Asked: Dear colleague, I am looking for the recorded hERG current change (%, negative = inhibition) at 10uM of the following compound: `COCc1nc2ccccc2n1CCc1ccccc1`
Given back: -33.6

Asked: For the compound shown here, CC(C)N1CCC(N2CCN(CC#Cc3ccccc3)CC2CCO)CC1 (stereo not drawn) , give the reported hERG current change (%, negative = inhibition) at 10uM.
Given back: 0.615

Asked: Please report the recorded hERG current change (%, negative = inhibition) at 10uM for `S=C(Cc1ccc(Cl)cc1)N1CCOCC1` .
Given back: 11.1

Asked: What does the record list as hERG current change (%, negative = inhibition) at 10uM for `COc1ccc(CN2CCN(CC(=O)Nc3ccccc3C(=O)NC3CC3)CC2)cc1F` ?
Given back: -91.3

Asked: Look up hERG current change (%, negative = inhibition) at 10uM: `CC(=O)Nc1ccc(S(=O)(=O)N2CCN(CCCOc3ccccc3Cl)CC2)cc1`
Given back: -49.6

Asked: Recorded hERG current change (%, negative = inhibition) at 10uM for `Cc1c(CNC(=O)C2CC2)c(-n2cccc2)n(Cc2ccccc2)c1C` , please?
Given back: 27.1

Asked: Which hERG current change (%, negative = inhibition) at 10uM value belongs to `Cc1ccc(N2C(=O)CS(=O)(=O)CC2=O)cc1` ?
Given back: 22.9
